Reported GI50 values are given for each entry in this list.
system: M14; experiment: NCI tumour cell line growth inhibition, 48 h
Calls of active or inactive are those of the source. Rule as the data show it: active = GI50 up to about 1.1 µM and inactive = higher.

Consider the worked cases shown below.
COC(=O)/C=C1/CCC2[C@@H](C(=O)CC3[C@]2(C)CCC[C@@]3(C)C(=O)OC)C1C (stereo partly specified): 13.2 µM (inactive)
Nc1ncn(C2OC(COP(=O)(O)O)C(O)C2O)c(=O)n1 (stereo unspecified): > 100 µM (inactive)
CCOC(=O)Cc1nc2ccc3c(c2nc1O)C(=O)c1ccccc1C3=O: 77.3 µM (inactive)

Entry Cc1ccc(CC[PH](=O)CCc2ccc(C)nc2)cn1 has what GI50?
> 100 µM (inactive)

Entry C1CNOCCCONCCCNOCCCONC1 has what GI50?
72.1 µM (inactive)

Entry O=S(=O)(NCn1ccc2ccccc21)c1ccccc1 has what GI50?
> 100 µM (inactive)

---

system: SF-268; test: NCI tumour cell line growth inhibition, 48 h
Activity calls are given as the source filed them. Rule as the data show it: active = GI50 up to about 1.1 µM and inactive = higher.
quantity: GI50

Consider the worked cases shown below.
CC(C)=CCCC1(Sc2ccccc2)C(=O)OCC1C=C(C)C (configuration not stated): 38.6 µM (inactive)
Cn1c(=O)c2nc(/N=N/Nc3nncs3)[nH]c2n(C)c1=O: > 100 µM (inactive)
COCn1cc(C2=C(C)C(=O)C(C)=C(C)C2=O)cn1: 25.4 µM (inactive)
COc1cc2c(c(OC)c1OC)-c1ccc(SC)c(=O)cc1C(CC(=O)Oc1cccc(F)c1)C2 (configuration not stated): 0.653 µM (active)
COc1ccc(-c2cc(O)c3c(C)cc(C)nc3n2)cc1: 53 µM (inactive)
Cc1cn(C2CC(SCCO)C(CO)O2)c(=O)[nH]c1=O (configuration not stated): > 100 µM (inactive)
Cc1cc(O)nc(NNC(C#N)c2ccccc2O)n1 (configuration not stated): 13 µM (inactive)
CN1CNc2nc(N)n(C)c(=O)c2C1: > 10 µM (inactive)
CCOC(=O)/C=C/CCC(C)(C)COC(C)=O: > 10 µM (inactive)
COc1cc([C@H]2Oc3c(OC)cc(CCCO)cc3[C@@H]2CO)ccc1O [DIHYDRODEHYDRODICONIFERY ALCOHOL]: > 100 µM (inactive)

Entry COc1cc(Cn2c3c(c4c(C(=O)NCCN(C)C)c(O)ccc42)C(=O)c2ccccc2C3=O)cc(OC)c1 has what GI50?
1.99 µM (inactive)

Entry COc1ccc(-c2c(-c3ccccc3)c(C)nc3nc(SC)nc(SC)c23)cc1OC has what GI50?
24 µM (inactive)

Entry CC(C)CCCC(C)[C@H]1CC[C@H]2n3c(nnc3-c3ccccc3)CCC[C@]12C (some centres not stated) has what GI50?
12.7 µM (inactive)

Entry C[C@H]1CC[C@H](NC(=O)N(CCCl)N=O)CC1 has what GI50?
22.1 µM (inactive)

Entry COc1ccc(C(CC(=O)c2cccs2)C(=O)c2ccc3c(c2)OCO3)cc1 (configuration not stated) has what GI50?
> 100 µM (inactive)

Entry O=C1c2cccnc2S(=O)(=O)N1c1ccc([N+](=O)[O-])cc1 has what GI50?
> 100 µM (inactive)

---

tested on: HL-60; assay: NCI tumour cell line growth inhibition, 48 h
Activity calls are given as the source filed them. Cut-off read from the data, not from the text of the source: active = GI50 up to about 1.1 µM and inactive = higher.
Write down the outcome that applies. Available outcomes: t = active, f = inactive

Cc1ccc(C2(O)CS/C(=N\C34CC5CC(CC(C5)C3)C4)N2C(P(=O)(O)O)P(=O)(O)O)cc1 (stereo unspecified): f
NC(=S)NS(=O)(=O)c1ccc(Cl)cc1Cl: f

Given COC(=O)C1C(C(=O)OC)C1(Br)CBr (stereo unspecified) , state the outcome it received in this test.
f

Given CC1=CC(=O)C[C@]2(C)[C@@H](O)CC(C(C)CO)C[C@@H]12 (stereo partly specified) , state the outcome it received in this test.
f

Given COc1ccc(C[C@H]2COC(=O)[C@@H]2Cc2ccc(Br)cc2)cc1OC , state the outcome it received in this test.
f

Given COc1ccc(C2N3CCCCC3[C@@H]3c4[nH]c5ccccc5c4CCN23)c(OC)c1 (stereo partly specified) , state the outcome it received in this test.
f

Given COc1cc(-c2nnc3n2NC=C(C(=O)O)S3)cc(OC)c1OC , state the outcome it received in this test.
f

Given CC1=C(C)C(=O)OC(C(C)(O)C2(O)CC3OC34C3CC(O)C56OC5C=CC(=O)C6(C)C3CCC42C)C1 (stereo unspecified) , state the outcome it received in this test.
t

Given O=[N+]([O-])C(=C(Cl)Cl)C(Cl)=C(Cl)Cl , state the outcome it received in this test.
t

Given CC[N+]1(C)CCC(O)(/C=C/c2ccccc2)C(C(=O)/C=C/c2ccccc2)C1 (stereo unspecified) , state the outcome it received in this test.
f

Given C=CC[C@H]1[C@H](O[Si](C)(C)C(C)(C)C)C=CC(=O)[C@@H]1CC(=O)N(Cc1ccccc1)Cc1ccccc1 , state the outcome it received in this test.
f

Given O=C1Nc2ccccc2/C1=C/c1ccccc1 , state the outcome it received in this test.
f

Given CCOc1cc(C2CC(c3ccc(NS(=O)(=O)c4cc([N+](=O)[O-])ccc4C)cc3)=NN2c2ccc([N+](=O)[O-])cc2[N+](=O)[O-])ccc1O (stereo unspecified) , state the outcome it received in this test.
f

Given COc1ccc(/C=C2\C[C@H]3[C@@H]4CCC5=C[C@@H](N6CCCC6)CC[C@]5(C)[C@H]4CC[C@]3(C)[C@H]2O)cc1 , state the outcome it received in this test.
f

Given Cc1cnc[nH]c1=O , state the outcome it received in this test.
f

Given COc1nc(N)c(C#N)c(C#N)c1C#N , state the outcome it received in this test.
f

Given COC(=O)C1=C(c2ccc(OC)c(OC)c2)OC(c2ccc(OC)c(OC)c2)C1 (stereo unspecified) , state the outcome it received in this test.
f

Given COc1cc(C2[C@H]3C(=O)N(c4ccc(Cc5ccc(N6C(=O)[C@@H]7ON(c8ccccc8)C(c8cc(OC)c(OC)c(OC)c8)[C@@H]7C6=O)cc5)cc4)C(=O)[C@H]3ON2c2ccccc2)cc(OC)c1OC (stereo partly specified) , state the outcome it received in this test.
f

Given N#Cc1nc(C2SCCCS2)oc1N , state the outcome it received in this test.
f

Given Cc1nn(C(=O)c2ccncc2)c2c1C(c1ccc(Cl)cc1)SC(=N)N2 (stereo unspecified) , state the outcome it received in this test.
f

Given O=C(/C=C/c1c(O)ccc2ccccc12)c1ccc2ccccc2c1 , state the outcome it received in this test.
f

---

test system: CAKI-1; test: NCI tumour cell line growth inhibition, 48 h
The source made the active and inactive calls. Cut-off read from the data, not from the text of the source: active = GI50 up to about 1.1 µM and inactive = higher.
Write down the outcome that applies. Available outcomes: Yes (active), No (inactive)

Given COc1ccc2nc3ccccc3c(NCCN(CCCl)CCCl)c2c1 , state the outcome it received in this test.
Yes

Given COC(=O)[C@@H](NC1(c2ccccc2)c2ccccc2-c2ccccc21)[C@@H](C(=O)OC)N(NC(=O)OCc1ccccc1)C(=O)OCc1ccccc1.COC(=O)[C@@H](NC1(c2ccccc2)c2ccccc2-c2ccccc21)[C@H](C(=O)OC)N(NC(=O)OCc1ccccc1)C(=O)OCc1ccccc1 , state the outcome it received in this test.
No

Given O=C(Nc1nc2ccc([N+](=O)[O-])cc2[n+]([O-])n1)C(F)(F)F , state the outcome it received in this test.
No

---

tested on: HCC 2998; test: NCI tumour cell line growth inhibition, 48 h
The source made the active and inactive calls. Cut-off read from the data, not from the text of the source: active = GI50 up to about 1.1 µM and inactive = higher.
Reported GI50 values are given for each entry in this list.

Consider the worked cases shown below.
Cc1cc(N(CCC#N)CCC#N)ccc1C(=N/NC(=O)c1cc(Cl)ccc1O)/N=N/c1cccc(Cl)c1: 12 µM (inactive)
Nc1cc2c3c(cccc3c1)C(=O)N(CCN1CCN(CCN3C(=O)c4cccc5cc(N)cc(c45)C3=O)CC1)C2=O: > 100 µM (inactive)
COc1c2cc([N+](=O)[O-])cc1CNC(=O)CN1CCOCCOCCN(CCOCCOCC1)CC(=O)NC2: > 100 µM (inactive)

Entry CN1CCc2cc(N)cc3c2C1Cc1ccc2c(c1-3)OCO2 (stereo not given) has what GI50?
19.6 µM (inactive)

Entry O=[N+]([O-])/C=C/c1ccc(Cl)cc1Cl has what GI50?
15.5 µM (inactive)

---

Reported GI50 values are given for each entry in this list.
test system: LOX IMVI; assay: NCI tumour cell line growth inhibition, 48 h
Active and inactive are the calls of the source. Rule as the data show it: active = GI50 up to about 1.1 µM and inactive = higher.

O=S(=O)(N/C(=N\O)Nc1ccc(Cl)cc1)c1ccccc1: 13.4 µM (inactive)
COc1cc(CN2CCCCC2)cc2cc(C(=O)O)c(=O)oc12: > 100 µM (inactive)
S=P(N1CC1)(N1CC1)N1CC1: 39.6 µM (inactive)
COc1ccc(/C=C2\C[C@H]3[C@@H]4CCC5=C[C@@H](N6CCCC6)CC[C@]5(C)[C@H]4CC[C@]3(C)[C@H]2O)cc1: 1.78 µM (inactive)
O=c1nc(N2CCCC2)nc(N2CCCC2)s1: > 100 µM (inactive)
CCc1cc2c(oc3c4ccccc4ccc23)c(=O)[nH]1: > 10 µM (inactive)
Cc1cc(N(CCC#N)CCC#N)ccc1C(=N/NC(=O)c1cc(Cl)ccc1O)/N=N/c1cccc(Cl)c1: 11.4 µM (inactive)
C=C(Nc1ccc([N+](=O)[O-])cc1[N+](=O)[O-])c1c/c(=N\NC(N)=S)c2ccccc2o1: > 100 µM (inactive)
CN(C)c1ccc(/C=C(\NC(=O)c2ccccc2)C(=O)NC(CC(=O)O)C(=O)O)cc1 (centres undefined): 86.3 µM (inactive)
CC(C)C(Nc1c2ccccc2nc2ccccc12)C(=O)O (centres undefined): 55.1 µM (inactive)

Entry CC1CC(C)C2OC2(C)C[C@H](C)C(=O)NC(C)C(=O)N(C)[C@H](Cc2c(Br)[nH]c3ccccc23)C(=O)N[C@@H](c2ccc(O)cc2)CC(=O)O1 (some centres undefined) has what GI50?
0.0466 µM (active)

Entry O=C(O)C(C(C(=O)O)P(=O)(O)O)P(=O)(O)O (centres undefined) has what GI50?
> 100 µM (inactive)

Entry C=CCOC(=O)N1c2ccc(O[Si](C)(C)C(C)(C)C)cc2[C@@]23O[C@@]24[C@@H]1C#C/C=C\C#C[C@]3(O)C(OC)(OC)C[C@@H]4C has what GI50?
16.7 µM (inactive)
